Provenance of the data: patent US20240376094A2

molecular target: endogenous BCL-xL (Homo sapiens); construct: endogenous in cells; host or cells: COR-L105 (ECACC No. 92031918); NCI-H1650 (ATCC No. CRL-5883); assay: Degradation of endogenous BCL-xL in COR-L105 (ProteinSimple Jess); type: cell-based; details: COR-L105, 24 h, COR-L105, dose 300 nM, read-out: % BCL-xL vs. Untreated, COR-L105
Sequence (Q07817 whole entry): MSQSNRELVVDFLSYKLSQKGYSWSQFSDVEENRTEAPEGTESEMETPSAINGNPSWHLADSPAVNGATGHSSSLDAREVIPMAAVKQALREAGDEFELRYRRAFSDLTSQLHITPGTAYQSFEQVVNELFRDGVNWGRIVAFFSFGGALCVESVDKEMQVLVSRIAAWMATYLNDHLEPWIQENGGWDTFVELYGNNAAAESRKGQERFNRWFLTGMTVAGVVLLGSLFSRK
Property: remaining activity at 0.3 µM; scope: individual compounds
Number in %, nothing else.

Cc1ncsc1-c1ccc([C@H](C)NC(=O)[C@@H]2C[C@@H](O)CN2C(=O)[C@@H](NC(=O)C2CC3(C2)CC(C(=O)N2CCN(CC#Cc4ccc(OCCCc5sc(N6CCCc7c6nnc(Nc6nc8ccccc8s6)c7C)nc5C(=O)O)c(F)c4)CC2)C3)C(C)(C)C)cc1 (stereo partly shown) [Example 41] :: 30.3
Cc1ncsc1-c1ccc([C@H](C)NC(=O)[C@@H]2C[C@@H](O)CN2C(=O)[C@@H](NC(=O)CCCCCCCC(=O)N2CCN(CC#Cc3ccc(OCCCc4sc(N5CCCc6c5nnc(Nc5nc7ccccc7s5)c6C)nc4C(=O)O)c(F)c3)CC2)C(C)(C)C)cc1 [Example 38] :: 22.1
Cc1ncsc1-c1ccc(CNC(=O)[C@@H]2C[C@@H](O)CN2C(=O)[C@@H](NC(=O)C2(F)CC2)C(C)(C)C)c(OCC(=O)NCCCCC(=O)N2CCN(CC#Cc3ccc(OCCCc4sc(N5CCCc6c5nnc(Nc5nc7ccccc7s5)c6C)nc4C(=O)O)c(F)c3)CC2)c1 [Example 44] :: 58.3

Problem: Look up and state reported remaining activity at 0.3 µM for Cc1ncsc1-c1ccc([C@H](C)NC(=O)[C@@H]2C[C@@H](O)CN2C(=O)[C@@H](NC(=O)c2ccc(C(=O)N3CCN(CC#Cc4ccc(OCCCc5sc(N6CCCc7c6nnc(Nc6nc8ccccc8s6)c7C)nc5C(=O)O)c(F)c4)CC3)cc2F)C(C)(C)C)cc1 [Example 43]
Solution: 19.9

====

Property: DC50; scope: individual compounds
Target: Bcl-xL (Homo sapiens, UniProt Q07817)
Construct: Measured levels of Bcl-xL protein of HCT116 cells treated with the tested compounds; host or cells: HCT116
Assay: HCT116 Bcl-xL degradation, capillary-based immunoassay (WES)
Format: cell-based
Settings: HCT116, 24 h, 9-point serial dilution
Description: HCT116 cells were purchased from ATCC and cultivated in RPMI 1640 supplemented with 10% heat inactivated fetal bovine serum, penicillin (100 IU/mi), streptomycin (100 μg/ml) and L-glutamine (2 mM). […] Protein concentration in the supernatants was determined using the Pierce BCA protein assay kit (Thermo Fisher Scientific). […] Signals were detected with an HRP-conjugated secondary anti-rabbit antibody (#042-206, Proteinsimple) and were quantified using Compass software (version 4.0, Proteinsimple). […]
Number in pM, nothing else.

Example entries and their recorded answers appear below.
Cc1ncsc1-c1ccc([C@H](C)NC(=O)[C@@H]2C[C@@H](O)CN2C(=O)[C@@H](NC(=O)CCCCCCCCCCCCCCCCN(C)CCOC23CC4(C)CC(C)(CC(Cn5ncc(-c6ccc(N7CCCc8c7nnc(Nc7nc9ccccc9s7)c8C)nc6C(=O)O)c5C)(C4)C2)C3)C(C)(C)C)cc1 :: 2170
Cc1ncsc1-c1ccc([C@H](C)NC(=O)C2C[C@@H](O)CN2C(=O)C(NC(=O)CCCCCCC(=O)N2CCN(CC#Cc3ccc(OCCCc4sc(N5CCCc6c5nnc(Nc5nc7ccccc7s5)c6C)nc4C(=O)O)c(F)c3)CC2)C(C)(C)C)cc1 (stereo in doubt) :: 470

Problem: Look up and state reported DC50 for Cc1c(Nc2nc3ccccc3s2)nnc2c1CCCN2c1ccc(-c2cnn(CC34CC5(C)CC(C)(C3)CC(OCCN(C)CCCCCCCCCCOc3ccc6c(c3)C(=O)N(C3CCC(=O)NC3=O)C6=O)(C5)C4)c2C)c(C(=O)O)n1 (stereo not shown)
Solution: 110
